# SYSTEM TESTED: Potassium channel subfamily K member 3 (Homo sapiens)
# EXPERIMENT DESCRIPTION: human KCNK3 channel inhibitors, primary screen, CHO cells, FluxOR thallium flux, B-score (AID 602410);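 as to B-score: more negative B-score means stronger inhibition of thallium flux through KCNK3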
# ASSAY CONDITIONS: FluxOR fluorescence, at 10 µM
Out of some 340,000 compounds screened, about 2,800 (0.82%) were called active.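 The calls were made as follows: active = B-score under library mean minus 4 SD, starting fluorescence ratio at most library mean plus 5 SD; inactive = the rest.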 Shown is part of a subset that was picked to be rich in actives.
Outcomes: T for active, F for inactive

1) CCCCCCN=C(CC)c1c(O)n(CCCC)c(=O)[nH]c1=O = T
2) Cc1cc(C(=O)OCC(=O)Nc2c(F)cccc2F)c(C)n1C1CC1 = F
3) CNCC(O)c1cc(F)c(OCc2ccccc2)c(OCc2ccccc2)c1F (centres undefined) = F
4) CCC(=NCCCO)c1c(O)n(-c2ccc(OC)cc2)c(=O)[nH]c1=O = F
5) COc1ccc(Br)cc1CNCCc1cccc(Cl)c1 = F
6) CCOC(=O)C1SC2(C(F)(F)C(F)F)CC1(O)c1c(c(OC)c3occc3c1OC)O2 (centres undefined) = T
7) CC12CN3CC(C)(CN(C1)C3c1cccs1)C2 (centres undefined) = F
8) COc1ccc(C(=O)C2CCCN(Cc3ccc(C)s3)C2)cc1OC (centres undefined) = F
9) CCN1CCN(Cc2cc(OC)c3c(c2)OCO3)CC1 = F
